What hERG current change (%, negative = inhibition) at 1uM was measured for each of the following?
# ASSAYED_SYSTEM: human ether-à-go-go-related gene (hERG) potassium channel (human)
# EXPERIMENT_NOTES: primary screen, population patch clamp on CHO cells stably expressing hERG; higher = less effect of the substance
The whole screen tested about 310,000 compounds, of which about 2,200 (0.71%) showed an effect of 50% or more. The effect is printed as a negative number. The sample as a whole holds a higher share of strong results than the screen did.
Numbers only, in %.

| MOLECULE | VALUE |
| --- | --- |
| N#Cc1cnn2c(-c3cccc(C(F)(F)F)c3)ccnc12 | 1.86 |
| O=C1CC(NS(=O)(=O)c2cccnc2)CN1c1cccc(F)c1 (stereo not shown) | 10.3 |
| COc1ccccc1Nc1c2ccccc2nc2ccccc12 | -18.4 |
| COc1cc(Nc2c3ccccc3nc3ccccc23)cc(OC)c1OC | -32.7 |
| CC(=O)Nc1ccc(CNc2ncnc3ccc(-c4c(C)noc4C)cc23)cc1 | 11.5 |
| CCOC(=O)c1nc2cc3n(c(C)c-2c1C)C(C)C(CC)=C3C.Cl (stereo not shown) | -39.5 |
| CC(Oc1ccc(Cl)cc1)C(=O)Nc1ccccc1C(=O)N1CCOCC1 (stereo not shown) | -1.27 |
| c1cncc(-c2nnc(SCc3cccc4ccccc34)o2)c1 | 0.0047 |

List the reported hERG current change (%, negative = inhibition) at 1uM of each molecule below.
1. CCc1noc(C)c1C(=O)NNC(=O)c1cc(OC)cc(OC)c1
2. Cc1ccc(NC(=O)c2cc(NC(=O)C3CC=CCC3C(=O)O)ccc2N2CCOCC2)cc1Cl (stereo not shown)

9.15
5.76

----------
What hERG current change (%, negative = inhibition) at 1uM was measured for each of the following?
# ASSAYED_SYSTEM: human ether-à-go-go-related gene (hERG) potassium channel (human, UniProt Q12809)
# Sequence (Q12809 whole entry, looked up): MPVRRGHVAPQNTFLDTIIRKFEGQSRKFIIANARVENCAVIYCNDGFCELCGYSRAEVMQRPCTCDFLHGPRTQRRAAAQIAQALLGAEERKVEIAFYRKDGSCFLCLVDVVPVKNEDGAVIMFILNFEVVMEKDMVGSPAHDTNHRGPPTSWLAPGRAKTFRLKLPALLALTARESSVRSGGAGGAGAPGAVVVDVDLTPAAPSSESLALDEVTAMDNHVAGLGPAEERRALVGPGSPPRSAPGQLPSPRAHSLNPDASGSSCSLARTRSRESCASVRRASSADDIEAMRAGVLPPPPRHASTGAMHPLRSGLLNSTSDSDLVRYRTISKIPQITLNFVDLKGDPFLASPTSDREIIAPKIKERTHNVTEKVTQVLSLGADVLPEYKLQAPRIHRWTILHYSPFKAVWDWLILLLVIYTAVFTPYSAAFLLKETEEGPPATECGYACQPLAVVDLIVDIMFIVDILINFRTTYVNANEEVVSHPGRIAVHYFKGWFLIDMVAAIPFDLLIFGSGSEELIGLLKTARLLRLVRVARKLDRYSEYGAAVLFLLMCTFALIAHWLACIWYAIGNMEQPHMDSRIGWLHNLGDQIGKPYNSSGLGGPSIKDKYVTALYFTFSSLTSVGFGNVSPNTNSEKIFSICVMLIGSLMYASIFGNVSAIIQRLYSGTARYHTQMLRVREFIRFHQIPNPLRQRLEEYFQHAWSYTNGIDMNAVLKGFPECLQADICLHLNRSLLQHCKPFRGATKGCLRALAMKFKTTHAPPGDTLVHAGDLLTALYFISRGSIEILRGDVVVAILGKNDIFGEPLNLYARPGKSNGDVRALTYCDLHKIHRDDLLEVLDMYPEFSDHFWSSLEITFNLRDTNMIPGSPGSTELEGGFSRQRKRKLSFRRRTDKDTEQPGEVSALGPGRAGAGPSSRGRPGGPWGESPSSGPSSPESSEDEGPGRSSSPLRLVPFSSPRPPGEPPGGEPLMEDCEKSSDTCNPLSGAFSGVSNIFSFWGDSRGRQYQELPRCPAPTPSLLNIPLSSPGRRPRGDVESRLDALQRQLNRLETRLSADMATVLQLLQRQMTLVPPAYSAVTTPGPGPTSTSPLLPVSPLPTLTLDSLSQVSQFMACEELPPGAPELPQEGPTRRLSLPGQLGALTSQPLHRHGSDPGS
# EXPERIMENT_NOTES: primary screen, population patch clamp on CHO cells stably expressing hERG; higher = less effect of the substance
The whole screen tested about 310,000 compounds, of which about 2,200 (0.71%) showed an effect of 50% or more. The effect is printed as a negative number. Shown is part of a subset that was picked to be rich in strong results.
Answers are plain numbers, in %.

| MOLECULE | UNIT_SYMBOL | VALUE |
| --- | --- | --- |
| O=C(Nc1ccc(Cn2nnc3ccccc32)cc1)c1ccco1 | % | 9.6 |
| c1cncc(COC2CCCN(Cc3nc(-c4cccs4)no3)C2)c1 (centres unmarked) | % | 15.7 |
| Cc1nn(-c2ccccc2)c(Cl)c1/C=N/O | % | 4.67 |
| Cc1ccc(C)c(NC(=O)Cn2nc(-c3ccccc3)nc2-c2ccccc2)c1 | % | 16.6 |
| CC(C)CCNC(=O)C1c2ccccc2Oc2ccccc21 | % | -12.1 |

List the reported hERG current change (%, negative = inhibition) at 1uM of each molecule below.
1. COc1ccc(CCNC(=O)Nc2ccc(F)cc2F)cc1OC
2. COCCNC(=O)COC(=O)c1cccnc1SC
3. CN(C)S(=O)(=O)c1cc(NC(=O)CNCCN2CCOCC2)ccc1Cl.O=C(O)C(=O)O

1: 15.8; 2: 12.8; 3: 7.62

List the reported hERG current change (%, negative = inhibition) at 1uM of each molecule below.
1. CCNC1=C(Cl)C(=O)c2ccccc2C1=O
2. COC(=O)C1=C(C)Nc2nc3ccccc3n2C1c1ccccc1F (centres unmarked)
3. CCOc1ccc(NC(=S)NCCCN2CCN(c3ccc(OC)cc3)CC2)cc1

[14.3, 8.31, -29.3]

----------
# ASSAYED_SYSTEM: human ether-à-go-go-related gene (hERG) potassium channel (human, UniProt Q12809)
# EXPERIMENT_NOTES: primary screen, population patch clamp on CHO cells stably expressing hERG; higher = less effect of the substance
About 2,200 (0.71%) of roughly 310,000 compounds showed an effect of 50% or more. The effect is printed as a negative number. Shown is part of a subset that was picked to be rich in strong results.
What hERG current change (%, negative = inhibition) at 1uM was measured for each of the following?
Numbers only, in %.

| COMPOUND | VALUE |
| --- | --- |
| O=C(NCC1(N2CCCCC2)CCCCC1)C1CC(=O)N(c2ccc3c(c2)OCCO3)C1 (centres unmarked) | 14.3 |

List the reported hERG current change (%, negative = inhibition) at 1uM of each compound below.
1. COc1ccc(N2CCN(C(=O)c3cc(=O)c4cc(C)ccc4o3)CC2)cc1
2. NC(=NCCc1ccc(Cl)cc1)NS(=O)(=O)c1ccccc1

-3.09
9.74

List the reported hERG current change (%, negative = inhibition) at 1uM of each compound below.
1. Cc1ccccc1NC(=O)N1CCC(C(=O)c2ccc(F)cc2)CC1
2. Cc1cn(COC/C=C/c2ccccc2)c(=O)[nH]c1=O
3. COc1cccc(C(c2sc3nc(C)nn3c2O)N2CCN(c3ccccc3F)CC2)c1 (centres unmarked)
4. O=C(Cc1ccc(Br)cc1)Nc1cccc(-c2cn3c(n2)SCC3)c1

17.6
7.16
10
12.2

----------
What hERG current change (%, negative = inhibition) at 1uM was measured for each of the following?
# ASSAYED_SYSTEM: human ether-à-go-go-related gene (hERG) potassium channel (human, UniProt Q12809)
# EXPERIMENT_NOTES: primary screen, population patch clamp on CHO cells stably expressing hERG; higher = less effect of the substance
The campaign covered roughly 310,000 compounds. About 2,200 (0.71%) showed an effect of 50% or more. The effect is printed as a negative number. The sample holds strong results, similar compounds and a random draw of the others, so the mix is not that of the screen.
Numbers only, in %.

Worked cases, hERG current change (%, negative = inhibition) at 1uM given:
| MOLECULE | UNIT_SYMBOL | VALUE |
| --- | --- | --- |
| CSc1ccccc1OCc1cc(C(=O)NC2CCc3ccccc32)no1 (centres unmarked) | % | 17.2 |
| COC(=O)[C@@H](NC(=O)c1ccccc1)[C@@H](C)O | % | 5.85 |
| CN(C)c1cccc(/C=C(\C#N)c2ccccc2)c1 | % | 14.2 |
| CC(=O)N1CCN(c2nc(-c3cccs3)nc3ccccc23)CC1 | % | -49.4 |
| Cc1ccc(NC(=O)CN(C)C(=O)Cn2c(=O)oc3ccccc32)cc1 | % | 7.84 |
| Cc1c(C(=O)N2CCN(C(=O)c3ccccc3)CC2)oc2ccc(F)cc12 | % | -5.86 |
| O=C(CN(Cc1ccccc1Cl)C(=O)CN1C(=O)CSc2ccccc21)NC1CC1 | % | -30.7 |
| CN(Cc1c(F)cccc1Cl)C(=O)CNC(=O)c1ccc2c(c1)OCO2 | % | 13.8 |
| Cc1ccc(Nc2nc(N)nc(CN3CCN(c4ccccc4)CC3)n2)cc1Cl | % | -10.8 |
| Nc1nc(CN2CCN(C(=O)c3ccco3)CC2)nc(Nc2cccc(Cl)c2)n1 | % | -76.3 |

List the reported hERG current change (%, negative = inhibition) at 1uM of each molecule below.
1. Cc1ccc(S(=O)(=O)N(CC(=O)NCc2cccnc2)C2CCCCC2)cc1
2. C=CCc1cccc2cc(C(=O)Nc3ccc(F)cc3)c(=O)oc12
3. Cc1ccc([N+](=O)[O-])c2c1C(N1CC(C)OC(C)C1)C(C)(C)O2 (centres unmarked)
4. Cc1ccc2nc(CSc3nnc(-c4ccco4)n3-c3ccccc3)cc(=O)n2c1
5. COc1ccc(-c2cc(-c3cccs3)nc(OC)c2C#N)cc1OC
6. O=C(Oc1ccc(OC(=O)c2ccncc2)cc1)c1ccncc1

1. -30.3
2. 6.28
3. 17.1
4. -2.87
5. 24.6
6. 0.316

List the reported hERG current change (%, negative = inhibition) at 1uM of each molecule below.
1. O=C(CN(C1CCCCC1)S(=O)(=O)c1ccccc1)NCc1cccnc1
2. CCN(CC(=O)NCc1cccnc1)S(=O)(=O)c1ccc(OC)cc1
3. COc1ccc(-c2cc(C)no2)cc1S(=O)(=O)Nc1cccc(C)c1
4. c1ccc(N2CCN(c3nc(-c4cccs4)nc4ccccc34)CC2)cc1
5. O=c1c2ccccc2c(C=NCCO)c(O)n1-c1ccccc1
6. Cc1c(C(=O)N2CCN(c3ncccn3)CC2)oc2ccc(Cl)cc12
7. O=C(CN(Cc1ccccc1)S(=O)(=O)c1ccc(F)cc1)NCc1cccnc1
8. c1csc(-c2nc(N3CCOCC3)c3ccccc3n2)c1

1: 5.52; 2: 0.0713; 3: 15.5; 4: 4.12; 5: 11; 6: 2.57; 7: -31.9; 8: 5.11

List the reported hERG current change (%, negative = inhibition) at 1uM of each molecule below.
1. O=C(CN(C1CCCCC1)S(=O)(=O)c1ccc(Cl)cc1)NCc1cccnc1
2. Cc1c(C(=O)N2CCN(CCc3ccccn3)CC2)oc2ccc(Cl)cc12
3. CCOC(=O)c1nnc(-c2ccccc2)nc1NC
4. O=[N+]([O-])c1cc2c(cc1CN1CCN(c3ccc(F)cc3)CC1)OCO2
5. COc1ccccc1NC(=O)Cn1nnc(-c2ccccc2NC(=O)c2ccco2)n1

1. -60.6
2. -84.6
3. 2.74
4. 7.89
5. 14.7

List the reported hERG current change (%, negative = inhibition) at 1uM of each molecule below.
1. O=C(NC1CCCCC1)C1CCN(c2nnnn2-c2ccccc2)CC1
2. Cn1c(-c2ccc(F)cc2)cnc1NCc1ccc(C#N)cc1

1. 3.39
2. -22.9

Origin of the recorded values: paper PMC4336329
